Measured composite z-score, listed per entry.
- ASSAY_SYSTEM: Fibroblast growth factor 2 (Homo sapiens)
- MEASUREMENT_NOTES: FGF2 binders on small-molecule microarrays, primary screen, biochemical, small-molecule microarray, 635/667 nm fluorescence (AID 1133)
- CONDITIONS_USED: small-molecule microarray binding, FGF2, fluorescence 635/667; higher = more signal
# print the numeric value only

Some compounds with known composite z-score results, for comparison:
COMPOUND: CC1C2C(CCCO)=CC(C3C(=O)N(C)C(=O)C23)N1Cc1cccc(OC(F)(F)F)c1 (centres undefined)
TEST_VALUE: 0.303

COMPOUND: C=CC[C@H](O)c1ccc(O)c2ccccc12
TEST_VALUE: 1.49

COMPOUND: COC(=O)[C@@]1(Cc2ccc(F)cc2)[C@H]2c3cc(C(=O)N(C)C)n(Cc4cccc5ccccc45)c3C[C@H]2CN1C(=O)c1ccccc1
TEST_VALUE: -0.617

*Q* For `O=C(CS)NCCCCCCNC(=O)[C@H]1C[C@H]2C(=O)NCC(=O)N2[C@H]1c1cccc(OCCO)c1` , write its composite z-score.
*A* 1.56

*Q* For C=CCC(OC(C)=O)[C@@H]1[C@@H](N(Cc2ccc(-c3ccccc3)cc2)C(=O)Cc2ccc(OC)cc2)c2cc(OCCCO)ccc2N1C(=O)c1ccc2ccccc2c1 (some centres undefined) , write its composite z-score.
*A* 0.338

*Q* For `COC(=O)[C@]1(Cc2ccccc2N=[N+]=[N-])N=C(c2ccc(OCCCO)cc2)O[C@@H]1c1ccccc1CN=[N+]=[N-]` , write its composite z-score.
*A* 1.38

*Q* For CCCCCN1CC=CC23O[C@@H]4/C=C\CCCOC(=O)C4[C@H]2C(=O)N(CCO)[C@@H]3C1=O (some centres undefined) , write its composite z-score.
*A* -0.0388

*Q* For CC(C)c1ccc(NN2C(C(O)c3ccccc3)C=CC3C(=O)N(c4ccccc4)C(=O)C32)cc1 (centres undefined) , write its composite z-score.
*A* -0.522

----------
Measured composite z-score, listed per entry.
- Tested on: Plasmodium falciparum Sir2 (PF13_0152, Sir2A)
- MEASUREMENT_NOTES: pfSir2 binders on small-molecule microarrays, primary screen, biochemical, small-molecule microarray, 635 nm fluorescence (AID 1098);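 also: score merges spot fluorescence intensity with its signal-to-noise ratio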
- CONDITIONS_USED: small-molecule microarray binding, fluorescence 635 nm; higher = more signal

Some compounds with known composite z-score results, for comparison:
COMPOUND: C=CC[C@]1(C(N)=O)N=C(c2ccc(OCCCO)cc2)O[C@H]1c1ccccc1N=[N+]=[N-]
ASSAY_SYSTEM: Plasmodium falciparum Sir2 (PF13_0152, Sir2A)
composite z-score: 1.56

COMPOUND: O=C1O[C@@H](c2ccccc2)[C@@H](c2ccccc2)N2[C@@H](c3ccccc3OCCO)[C@]3(C(=O)Nc4ccc(C#CC5(O)CCCCCC5)cc43)[C@@H](C(=O)N3CCCCCCC3)[C@H]12
ASSAY_SYSTEM: Plasmodium falciparum Sir2 (PF13_0152, Sir2A)
composite z-score: 2.16

COMPOUND: C=C(CC1([C@@H](NP(=O)(c2ccccc2)c2ccccc2)[C@H]2C[C@@H]2CCCC)CC1)c1cccc(OC)c1
ASSAY_SYSTEM: Plasmodium falciparum Sir2 (PF13_0152, Sir2A)
composite z-score: -0.167

# ---- query compound ----
*Q* For CC(C)c1ccc(NN2C(C(O)C3=C[C@H]4C[C@@H](C3)C4(C)C)C=CC3C(=O)N(c4ccccc4)C(=O)C32)cc1 (some centres undefined) , write its composite z-score.
*A* 0.969

----------
Measured composite z-score, listed per entry.
- ASSAY_SYSTEM: Pro-neuregulin-1, membrane-bound isoform (Homo sapiens) (UniProt Q02297)
- Sequence (Q02297 whole entry, looked up, canonical isoform): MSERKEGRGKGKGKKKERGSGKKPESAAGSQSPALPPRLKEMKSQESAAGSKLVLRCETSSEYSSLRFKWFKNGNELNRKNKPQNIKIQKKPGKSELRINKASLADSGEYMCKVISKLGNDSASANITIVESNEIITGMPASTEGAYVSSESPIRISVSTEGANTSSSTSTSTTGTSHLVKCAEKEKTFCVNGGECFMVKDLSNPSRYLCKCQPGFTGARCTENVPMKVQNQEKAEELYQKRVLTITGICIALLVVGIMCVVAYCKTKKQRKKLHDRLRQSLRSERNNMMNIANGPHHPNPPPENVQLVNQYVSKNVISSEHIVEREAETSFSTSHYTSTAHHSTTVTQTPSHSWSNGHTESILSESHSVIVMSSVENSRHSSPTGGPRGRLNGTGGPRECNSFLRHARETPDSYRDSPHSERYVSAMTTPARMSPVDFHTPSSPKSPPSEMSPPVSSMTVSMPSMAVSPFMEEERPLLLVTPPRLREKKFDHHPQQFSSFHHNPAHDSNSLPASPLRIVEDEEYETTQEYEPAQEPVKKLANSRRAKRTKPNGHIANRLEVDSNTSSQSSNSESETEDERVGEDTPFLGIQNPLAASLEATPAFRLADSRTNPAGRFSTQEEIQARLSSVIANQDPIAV
- MEASUREMENT_NOTES: NRG1 binders on small-molecule microarrays, primary screen, psychiatric disease protein project, biochemical, small-molecule microarray, fluorescence 635/667 (AID 1075);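 also: score combines 667 nm spot fluorescence with signal to noise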
- CONDITIONS_USED: NRG1 binding, 635 nm fluorescence, higher = more signal
# print the numeric value only

Some molecules with known composite z-score results, for comparison:
MOLECULE: CC(CO)N1C(=O)[C@@H]2[C@H]3C(=O)OCC=C[C@H]3OC23C=CCN(c2ccc4ccccc4c2)C(=O)[C@@H]13 (stereo partly specified)
ASSAY_SYSTEM: Pro-neuregulin-1, membrane-bound isoform (Homo sapiens) (UniProt Q02297)
composite z-score: -1.2
//
MOLECULE: C=CCOC(=O)[C@@H]1[C@H]2C(=O)O[C@H](c3ccccc3)[C@H](c3ccccc3)N2[C@H](c2ccc(OCCOC(=O)[C@@H]3C[C@@H]4C(=O)N[C@@H](CC(C)C)C(=O)N4[C@@H]3c3ccc(O)cc3)cc2)[C@@]12C(=O)Nc1ccc(I)cc12
ASSAY_SYSTEM: Pro-neuregulin-1, membrane-bound isoform (Homo sapiens) (UniProt Q02297)
composite z-score: 0.616
//
MOLECULE: COc1ccc(C(=O)Nc2ccc(CN3C(=O)[C@@]4(O[C@@H](CC(=O)N(CCO)Cc5ccccc5)[C@H]([Si](C)(C)c5ccc(OC)cc5)[C@H]4C)c4ccccc43)cc2)cc1
ASSAY_SYSTEM: Pro-neuregulin-1, membrane-bound isoform (Homo sapiens) (UniProt Q02297)
composite z-score: 0.984
//
MOLECULE: CC(C)(C)OC(=O)CC[C@@]1(C(N)=O)N=C(c2ccc(OCCCO)cc2)O[C@@H]1c1ccccc1CN=[N+]=[N-]
ASSAY_SYSTEM: Pro-neuregulin-1, membrane-bound isoform (Homo sapiens) (UniProt Q02297)
composite z-score: 1.28
//
MOLECULE: COc1ccc(C(=O)Nc2ccc(CN3C(=O)[C@]4(O[C@H](CC(=O)N(CCO)Cc5ccccc5)[C@@H]([Si](C)(C)c5ccc(OC)cc5)[C@@H]4C)c4ccccc43)cc2)cc1
ASSAY_SYSTEM: Pro-neuregulin-1, membrane-bound isoform (Homo sapiens) (UniProt Q02297)
composite z-score: 0.74

# ---- query molecule ----
*Q* For `CCOC(=O)C1=CC[C@@H](c2ccccc2)N(S(=O)(=O)c2ccc(C)cc2)[C@@H]1C#N` , write its composite z-score.
*A* 1.11

----------
Measured composite z-score, listed per entry.
- System: glycogen synthase kinase-3 (GSK3A per assay name; protocol says GSK3B)
- MEASUREMENT_NOTES: GSK3 binders on small-molecule microarrays, primary screen, biochemical, small-molecule microarray, 635 nm fluorescence, GSK3A (AID 1103); also: the record names both GSK3A and GSK3B
- CONDITIONS_USED: small-molecule microarray binding, fluorescence 635 nm; higher = more signal

MOLECULE: O=C1NC(=O)C2C1C=CC(C(O)C(O)CO)N2Nc1ccccn1 (configuration not stated)
TEST_VALUE: 0.335
//
MOLECULE: COc1cc2c(cc1O)C(C)N(Cc1sc3ccccc3c1Cl)CC2 (configuration not stated)
TEST_VALUE: -0.306
//
MOLECULE: O=C(NCC(F)(F)F)[C@@H]1c2ccccc2C(=O)N(Cc2cc(C(F)(F)F)cc(C(F)(F)F)c2)[C@H]1c1ccc(CO)cc1
TEST_VALUE: -0.137
//
MOLECULE: CO[C@H]1O[C@H](CO)[C@@H](OC(=O)Nc2cccc(F)c2)[C@H](OC(=O)Nc2ccc3c(c2)OCO3)[C@@H]1OC(=O)Nc1ccc2c(c1)OCO2
TEST_VALUE: 1.2
//
MOLECULE: COC(=O)C(CC#Cc1ccc2c(c1)[C@]1(C(=O)N2)[C@H](c2ccc(OCCO)cc2)N2[C@H](c3ccccc3)[C@H](c3ccccc3)OC(=O)[C@H]2[C@@H]1C(N)=O)C(=O)OC
TEST_VALUE: -0.0277
//
MOLECULE: CC(C)N1C(=O)[C@@]2(Cc3ccccc31)c1ccccc1C(=O)N(Cc1ccccc1)[C@H]2c1ccc(CO)cc1
TEST_VALUE: 0.241

# ---- query molecule ----
*Q* Provide composite z-score, system glycogen synthase kinase-3 (GSK3A per assay name; protocol says GSK3B), entry `C=CCOC(=O)[C@H]1[C@@H]2C(=O)O[C@@H](c3ccccc3)[C@@H](c3ccccc3)N2[C@@H](c2ccc(OCCOC(=O)[C@H]3C[C@H]4C(=O)NCC(=O)N4[C@H]3c3cccc(OCCO)c3)cc2)[C@]12C(=O)Nc1ccc(I)cc12`
*A* 1.3

----------
- MEASUREMENT_NOTES: modulators of S6 phosphorylation in cells, primary screen, cell-based, A549, cytoblot, luminescence, serum-stimulated (AID 1158);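 also: serum-stimulated A549 lung adenocarcinoma cells; signal is phosphorylated S6 detected by cytoblot immunostaining with HRP secondary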
- CONDITIONS_USED: A549 phospho-S6 cytoblot, 5 h, higher = more signal
READOUT_NAME: z-score

Some molecules with known z-score results, for comparison:
MOLECULE: COC(=O)[C@]1(Cc2ccccc2CN=[N+]=[N-])N=C(c2ccc(OCCCO)cc2)O[C@@H]1c1ccccc1N=[N+]=[N-]
z-score: -0.424

MOLECULE: CN(C)CCCCNC(=O)[C@H]1C[C@H]2C(=O)N[C@@H](CCCCN(C)C)C(=O)N2[C@H]1c1ccc(O)cc1
z-score: 0.859

MOLECULE: COc1c(C)cc(-c2cc3c(c(CCc4ccccc4)n2)[Si](C(C)C)(C(C)C)O[C@H]3c2ccccc2)cc1C
z-score: -0.673

MOLECULE: CCCCCCc1nc(-c2ccc(OC)nc2)c(C)c2c1[Si](C(C)C)(C(C)C)OC2
z-score: 1.34

MOLECULE: COC(=O)[C@H](Cc1ccccc1)N1CC(C)(OC)O[C@@H](Cc2ccccc2)[C@H]1/C=C/C1CC1 (stereo partly drawn)
z-score: -0.105

*Q* For `O=C1O[C@H](c2ccccc2)[C@H](c2ccccc2)N2[C@H]1[C@@H](C(=O)O)[C@]1(C(=O)Nc3ccccc31)[C@H]2c1ccc(OCCO)cc1` , write its z-score.
*A* -0.412

*Q* For `COCCOC(=O)N1C(=O)[C@@]2(c3cc(C#CC4=CCCCC4)ccc31)[C@H](C(=O)N1CCCCCCC1)[C@H]1C(=O)O[C@H](c3ccccc3)[C@H](c3ccccc3)N1[C@@H]2c1ccccc1OCCO` , write its z-score.
*A* 0.526

*Q* For `CC(C)(C)OC(=O)N1[C@@H](C=C(Br)Br)COC1(C)C` , write its z-score.
*A* 0.855
